# Test system: Mycobacterium bovis BCG containing pMV361-lux (BCG:361-lux)
# assay-text: microbe, parasite or virus in culture
# Format: cell-based
# assay-conditions: Mycobacterium tuberculosis variant bovis BCG, BCG, 72 h
quantity-name: MIC (µg/mL)

| mol | units-text | result-modifier | observed-value |
| --- | --- | --- | --- |
| NCC[C@H](O)C(=O)N[C@@H]1C[C@H](N)[C@@H](O[C@H]2O[C@H](CN)[C@@H](O)[C@H](O)[C@H]2O)[C@H](O)[C@H]1O[C@H]1O[C@H](CO)[C@@H](O)[C@H](N)[C@H]1O | µg/mL | = | 0.5 |
| O=C(O)c1cn(C2CC2)c2cc(N3CCNCC3)c(F)cc2c1=O | µg/mL | = | 0.5 |
| NNC(=O)c1ccncc1 | µg/mL | > | 0.5 |

----------
# Test system: Mycobacterium bovis BCG containing pMV361-lux (BCG:361-lux)
# assay-text: microbe, parasite or virus in culture
# Assay type: cell-based
# assay-conditions: Mycobacterium tuberculosis variant bovis BCG, BCG, 96 h
Consider the following compounds and their measured MBC readings.
quantity-name: MBC (µg/mL)

| mol | quantity-name | units-text | result-modifier | observed-value |
| --- | --- | --- | --- | --- |
| [H]/N=C(/N)N[C@H]1[C@H](O)[C@@H](O)[C@H](O[C@@H]2O[C@@H](C)[C@](O)(C=O)[C@H]2O[C@@H]2O[C@@H](CO)[C@H](O)[C@@H](O)[C@@H]2NC)[C@@H](N/C(N)=N\[H])[C@@H]1O | MBC | µg/mL | = | 0.25 |
| CO[C@H]1/C=C/O[C@@]2(C)Oc3c(C)c(O)c4c(O)c(c(/C=N/N5CCN(C)CC5)c(O)c4c3C2=O)NC(=O)/C(C)=C\C=C\[C@H](C)[C@H](O)[C@@H](C)[C@@H](O)[C@@H](C)[C@H](OC(C)=O)[C@@H]1C | MBC | µg/mL | = | 0.13 |
| O=C(O)c1cn(C2CC2)c2cc(N3CCNCC3)c(F)cc2c1=O | MBC | µg/mL | = | 0.5 |
| CC[C@H]1OC(=O)[C@H](C)[C@@H](O[C@H]2C[C@@](C)(OC)[C@@H](O)[C@H](C)O2)[C@H](C)[C@@H](O[C@@H]2O[C@H](C)C[C@H](N(C)C)[C@H]2O)[C@](C)(OC)C[C@@H](C)C(=O)[C@H](C)[C@@H](O)[C@]1(C)O | MBC | µg/mL | > | 0.5 |
| NNC(=O)c1ccncc1 | MBC | µg/mL | = | 0.13 |
| NCC[C@H](O)C(=O)N[C@@H]1C[C@H](N)[C@@H](O[C@H]2O[C@H](CN)[C@@H](O)[C@H](O)[C@H]2O)[C@H](O)[C@H]1O[C@H]1O[C@H](CO)[C@@H](O)[C@H](N)[C@H]1O | MBC | µg/mL | = | 0.25 |
| CC[C@@H](CO)NCCN[C@@H](CC)CO | MBC | µg/mL | = | 4 |

----------
# System: Mycobacterium bovis BCG containing pMV361-lux (BCG:361-lux)
# assay-text: microbe, parasite or virus in culture
# Assay type: cell-based
# assay-conditions: Mycobacterium tuberculosis variant bovis BCG, BCG, 72 h
quantity-name: MIC (mg/L)

| mol | quantity-name | result-modifier | observed-value |
| --- | --- | --- | --- |
| CC[C@H]1OC(=O)[C@H](C)[C@@H](O[C@H]2C[C@@](C)(OC)[C@@H](O)[C@H](C)O2)[C@H](C)[C@@H](O[C@@H]2O[C@H](C)C[C@H](N(C)C)[C@H]2O)[C@](C)(OC)C[C@@H](C)C(=O)[C@H](C)[C@@H](O)[C@]1(C)O | MIC | = | 0.5 |
| [H]/N=C(/N)N[C@H]1[C@H](O)[C@@H](O)[C@H](O[C@@H]2O[C@@H](C)[C@](O)(C=O)[C@H]2O[C@@H]2O[C@@H](CO)[C@H](O)[C@@H](O)[C@@H]2NC)[C@@H](N/C(N)=N\[H])[C@@H]1O | MIC | = | 0.5 |
| CO[C@H]1/C=C/O[C@@]2(C)Oc3c(C)c(O)c4c(O)c(c(/C=N/N5CCN(C)CC5)c(O)c4c3C2=O)NC(=O)/C(C)=C\C=C\[C@H](C)[C@H](O)[C@@H](C)[C@@H](O)[C@@H](C)[C@H](OC(C)=O)[C@@H]1C | MIC | > | 0.25 |
| CC[C@@H](CO)NCCN[C@@H](CC)CO | MIC | > | 8 |
